system: Trypanosoma cruzi; experiment: Trypanosoma cruzi phosphomannomutase and mannose-1-phosphate guanylyltransferase assay; type: functional; design: scale not given: direction of the effect not stated beside the values; conditions: 10 µM
The entries below come with measured Percent Effect values attached.
readout.name: Percent Effect (%)

molecule=Cc1nn(C)c(N2CCOCC2)c1CNCc1ccc(Cl)s1 readout_name="Percent Effect" measured_value=2.06
molecule=COC(=O)CNC(=O)CSCc1nc(O)c2c(C)c(C)sc2n1 readout_name="Percent Effect" measured_value=-3.93
molecule=O=C(NC1CCC1)[C@@H]1CCO[C@@H]2CCN(CCc3ccccc3)C[C@H]21 readout_name="Percent Effect" measured_value=4.3
molecule="CCc1n[nH]c(C2CN(C(=O)c3cnc(C)s3)CCO2)n1 (centres undefined)" readout_name="Percent Effect" measured_value=5
molecule="COCC(=O)N1CCCC2(CCN(c3ccsc3)C2=O)C1 (centres undefined)" readout_name="Percent Effect" measured_value=-1.18
molecule="Cc1nc(C)n(C2CCCN(C(=O)c3cc4ccccc4n3C)C2)n1 (centres undefined)" readout_name="Percent Effect" measured_value=5.78
molecule=Cc1nc(N2CCCC2)nc2c1CCN(Cc1ccco1)CC2 readout_name="Percent Effect" measured_value=0
molecule=CNS(=O)(=O)c1cccc(CNc2cc(C(F)(F)F)ccn2)c1 readout_name="Percent Effect" measured_value=-6.13
molecule="Cc1c(C2CCCN(C(=O)C3CC3)C2)n2c(nc1=O)CCC2 (centres undefined)" readout_name="Percent Effect" measured_value=-0.593

###

Listed here are molecules together with their documented Percent Effect.
test system: Trypanosoma cruzi; experiment: Trypanosoma cruzi phosphomannomutase and mannose-1-phosphate guanylyltransferase assay; format: functional; parameters: scale not given: direction of the effect not stated beside the values; details: 10 µM
readout.name: Percent Effect (%)

molecule="CN(Cc1ccsc1)C(=O)CN1CCCC1Cn1cccn1 (stereo not drawn)" target_under_test="Trypanosoma cruzi" measured_value=5
molecule="CCC(CC)c1cc(C(=O)N2CCCC(n3cncn3)C2)on1 (stereo not drawn)" target_under_test="Trypanosoma cruzi" measured_value=3.6
molecule=O=C(Nc1cccc(CNCc2csc(Br)c2)c1)C1CC1 target_under_test="Trypanosoma cruzi" measured_value=5.32
molecule=O=C(Cn1ccc2c(Cl)cccc21)N[C@@H](C(=O)O)c1ccccc1 target_under_test="Trypanosoma cruzi" measured_value=-4.71
molecule=CCn1cnnc1C1CCN(C(=O)c2ccccc2OC)CC1 target_under_test="Trypanosoma cruzi" measured_value=-4.68
molecule=CCOCCn1c(=O)[nH]c2cc(C(=O)N(C)CCc3cn[nH]c3)ccc21 target_under_test="Trypanosoma cruzi" measured_value=5.6
molecule="Cc1nc(CN2CCC(N(C)Cc3noc(C(C)C)n3)C2)cs1 (stereo not drawn)" target_under_test="Trypanosoma cruzi" measured_value=-5.68
molecule=Cc1ccc(-n2nnc(CC(=O)N3CCSCC3)c2C)cc1 target_under_test="Trypanosoma cruzi" measured_value=3.83
molecule=O=C(NC1CC1)N1CCc2ncnc(-c3ccncc3)c2CC1 target_under_test="Trypanosoma cruzi" measured_value=-6.37
molecule=CCN(C)c1ncnc2c1CCN(C(=O)c1ccno1)CC2 target_under_test="Trypanosoma cruzi" measured_value=-4.05
molecule=Cc1ncc(CN2Cc3ccccc3O[C@]3(CC[C@H](CO)CC3)C2)cn1 target_under_test="Trypanosoma cruzi" measured_value=-2.57
molecule=COc1ccc(CS(=O)(=O)CC(=O)NCc2ccccc2F)cc1F target_under_test="Trypanosoma cruzi" measured_value=-2.63
molecule="CC(C)c1nc(C2CCCN2Cc2ccno2)no1 (stereo not drawn)" target_under_test="Trypanosoma cruzi" measured_value=-2.81
molecule="CN(Cc1nnc(C2CC2)n1C)C1CCN(CCc2cccs2)C1 (stereo not drawn)" target_under_test="Trypanosoma cruzi" measured_value=8.33
molecule="COc1ccsc1C(=O)N1CCCC(n2nc(C)nc2C)C1 (stereo not drawn)" target_under_test="Trypanosoma cruzi" measured_value=-6.89
molecule=CNC(=O)c1cc2c(nc1N(C)C)CCN(S(=O)(=O)C1CC1)CC2 target_under_test="Trypanosoma cruzi" measured_value=-10.8
molecule=CN(C)C(=O)N1C[C@@H]2CCCO[C@@H]2[C@H](N(C)Cc2ccco2)C1 target_under_test="Trypanosoma cruzi" measured_value=6.55
molecule="c1ccc(N2CCCC3(COCCN(c4nccs4)C3)C2)nc1 (stereo not drawn)" target_under_test="Trypanosoma cruzi" measured_value=11.7
molecule="NCCn1nc(C2CCN(C(=O)CC3CCCCC3)C2)c2nccnc21 (stereo not drawn)" target_under_test="Trypanosoma cruzi" measured_value=1.57
molecule="O=C(CCc1cscn1)N1CCCC(c2ccn[nH]2)C1 (stereo not drawn)" target_under_test="Trypanosoma cruzi" measured_value=-2.62
molecule="Cc1noc(C)c1C(=O)NCC(O)c1ccc(F)cc1F (stereo not drawn)" target_under_test="Trypanosoma cruzi" measured_value=-3.06
molecule="O=C(c1cnc(-c2cccs2)s1)N1CCCC(n2cccn2)C1 (stereo not drawn)" target_under_test="Trypanosoma cruzi" measured_value=-1.6
molecule=Cc1ccc(S(=O)(=O)N2C[C@H]3C[C@H](NC(=O)c4ccn(C)n4)[C@H]3C2)cc1 target_under_test="Trypanosoma cruzi" measured_value=-0.395

###

molecular target: Tyrosyl-tRNA synthetase, putative (Trypanosoma cruzi (strain CL Brener)) (UniProt Q4DSP6); experiment: Trypanosoma cruzi tyrosyl tRNA synthetase (TcYRS) SOP; format: functional; set-up: scale not given: direction of the effect not stated beside the values; conditions: 30 µM
Sequence (Q4DSP6 as listed by the source): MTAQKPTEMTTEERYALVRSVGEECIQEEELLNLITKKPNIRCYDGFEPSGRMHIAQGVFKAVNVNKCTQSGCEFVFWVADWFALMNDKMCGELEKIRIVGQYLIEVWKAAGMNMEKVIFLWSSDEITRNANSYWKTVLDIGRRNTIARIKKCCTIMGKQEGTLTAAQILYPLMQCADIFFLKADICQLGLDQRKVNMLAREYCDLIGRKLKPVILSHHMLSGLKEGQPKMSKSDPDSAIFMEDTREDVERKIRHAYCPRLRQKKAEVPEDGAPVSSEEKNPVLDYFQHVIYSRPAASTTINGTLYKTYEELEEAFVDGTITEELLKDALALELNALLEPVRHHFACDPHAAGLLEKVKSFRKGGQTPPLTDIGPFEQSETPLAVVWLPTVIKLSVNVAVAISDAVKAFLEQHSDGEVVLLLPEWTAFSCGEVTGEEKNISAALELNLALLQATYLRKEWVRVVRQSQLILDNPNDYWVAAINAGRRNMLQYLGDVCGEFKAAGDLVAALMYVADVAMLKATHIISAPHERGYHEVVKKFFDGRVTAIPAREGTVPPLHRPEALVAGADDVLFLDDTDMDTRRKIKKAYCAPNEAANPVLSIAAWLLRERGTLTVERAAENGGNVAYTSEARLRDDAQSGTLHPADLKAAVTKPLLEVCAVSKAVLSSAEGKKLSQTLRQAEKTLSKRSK
Below, each entry is listed alongside its reported Percent Effect.
readout.name: Percent Effect (%)

compound=Cc1ccc(NC2CCN(C(=O)c3ccsc3)CC2)nn1 unit_info=% measured_value=9.76
compound="CCc1n[nH]c(C2CN(CCc3ccncc3)CCO2)n1 (centres undefined)" unit_info=% measured_value=7.59
compound="Cc1csc(C2CCCCN2C(=O)CN(C)Cc2ccccc2)n1 (centres undefined)" unit_info=% measured_value=2.53
compound=Cc1cc(CNC(=O)N2CCN(c3ccccc3)CC2)no1 unit_info=% measured_value=3.66
compound="Fc1ccc2[nH]c(C3CCCN3CCc3ccccn3)nc2c1 (centres undefined)" unit_info=% measured_value=23.5
compound=Cc1csc(N2CCN(C(=O)CCC(=O)c3ccc(C)s3)CC2)n1 unit_info=% measured_value=25.9
compound="CC(C)c1noc(C(C)N2CCN(Cc3ccsc3)CC2)n1 (centres undefined)" unit_info=% measured_value=3.7
compound="COCCN1CCN(CCS(=O)(=O)C(F)(F)F)CC1C (centres undefined)" unit_info=% measured_value=11
compound=Cc1ccc(-c2csc(N)c2C#N)cc1 unit_info=% measured_value=-12.8

###

Reported Percent Effect values are given for each entry in this list.
biological target: Arginase-2, mitochondrial (Homo sapiens) (UniProt P78540); experiment: in vitro enzyme assay to detect the production of urea directly proportional to the activity of Arginase II; assay type: functional; parameters: scale not given: in the data most compounds retested in dose-response had high values; details: 33.3 µM
Sequence (P78540 whole entry): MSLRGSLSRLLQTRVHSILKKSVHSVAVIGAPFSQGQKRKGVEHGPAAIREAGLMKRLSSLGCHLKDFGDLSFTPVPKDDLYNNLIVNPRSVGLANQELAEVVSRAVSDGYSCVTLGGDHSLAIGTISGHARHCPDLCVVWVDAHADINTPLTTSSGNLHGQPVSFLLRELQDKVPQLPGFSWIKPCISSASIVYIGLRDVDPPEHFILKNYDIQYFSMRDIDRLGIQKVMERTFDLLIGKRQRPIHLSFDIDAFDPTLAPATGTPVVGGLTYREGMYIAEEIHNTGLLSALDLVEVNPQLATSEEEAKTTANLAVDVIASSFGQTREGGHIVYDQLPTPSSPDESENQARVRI
readout.name: Percent Effect

compound="COc1ncccc1NC(=O)C1CCS(=O)(=O)C1 (centres undefined)" target_under_test="Arginase-2, mitochondrial (Homo sapiens) (UniProt P78540)" measured_value=-1.07%
compound="CCc1n[nH]c(C2CN(C(=O)c3cnns3)CCO2)n1 (centres undefined)" target_under_test="Arginase-2, mitochondrial (Homo sapiens) (UniProt P78540)" measured_value=-19%
compound=Cc1noc(CN2CCC(c3ccnn3CCO)CC2)n1 target_under_test="Arginase-2, mitochondrial (Homo sapiens) (UniProt P78540)" measured_value=-0.76%
compound=Cc1occc1C(=O)N1CCC2(CCN(Cc3nccs3)C2)CC1 target_under_test="Arginase-2, mitochondrial (Homo sapiens) (UniProt P78540)" measured_value=-8.28%
compound=O=C1CC2(CCN(CCO)CC2)CN1Cc1cc(F)cc(F)c1 target_under_test="Arginase-2, mitochondrial (Homo sapiens) (UniProt P78540)" measured_value=13.7%
compound="Cc1cc(CN2CCC(CNC(=O)c3nccc4ccccc34)C2)[nH]n1 (centres undefined)" target_under_test="Arginase-2, mitochondrial (Homo sapiens) (UniProt P78540)" measured_value=15.6%
compound="CCN(CC)S(=O)(=O)N1CCCC(c2ccc(C(=O)O)cc2)C1 (centres undefined)" target_under_test="Arginase-2, mitochondrial (Homo sapiens) (UniProt P78540)" measured_value=-4.76%
compound="CN1CCOC(CNCc2cccc(OCC(F)(F)F)c2)C1 (centres undefined)" target_under_test="Arginase-2, mitochondrial (Homo sapiens) (UniProt P78540)" measured_value=0.38%
compound="Cc1cc2n(n1)CC(CNCc1ccnc(-n3ccnc3C)c1)CN2 (centres undefined)" target_under_test="Arginase-2, mitochondrial (Homo sapiens) (UniProt P78540)" measured_value=-4.98%
compound=COCCN1CCN(C(=O)c2cc(C(C)C)on2)[C@H]2CS(=O)(=O)C[C@H]21 target_under_test="Arginase-2, mitochondrial (Homo sapiens) (UniProt P78540)" measured_value=-0.442%
compound="O=C(c1cccnc1)N1CCCC2(CCN(c3ccsc3)C2=O)C1 (centres undefined)" target_under_test="Arginase-2, mitochondrial (Homo sapiens) (UniProt P78540)" measured_value=11%
compound="Cn1cc(N2CC3(CCN(S(=O)(=O)C4CC4)C3)CC2=O)cn1 (centres undefined)" target_under_test="Arginase-2, mitochondrial (Homo sapiens) (UniProt P78540)" measured_value=-11.3%
compound=Cc1ncsc1-c1nnc(C2CCN(Cc3ccc(F)cc3)CC2)o1 target_under_test="Arginase-2, mitochondrial (Homo sapiens) (UniProt P78540)" measured_value=-0.696%
compound="CC(C)CC1SCC(=O)Nc2c1cnn2-c1ccc(F)cc1 (centres undefined)" target_under_test="Arginase-2, mitochondrial (Homo sapiens) (UniProt P78540)" measured_value=-3.35%
compound="Cc1ccc(OCCC(=O)NC2CCc3nc(C)cn3C2)cc1 (centres undefined)" target_under_test="Arginase-2, mitochondrial (Homo sapiens) (UniProt P78540)" measured_value=-4.73%
compound="CC1CN(CC(=O)Nc2nncs2)CCN1c1nccs1 (centres undefined)" target_under_test="Arginase-2, mitochondrial (Homo sapiens) (UniProt P78540)" measured_value=0.924%
compound=CCS(=O)(=O)N1CCC(c2nnc(CN3CCCC3)n2C2CC2)CC1 target_under_test="Arginase-2, mitochondrial (Homo sapiens) (UniProt P78540)" measured_value=12.5%
compound="COc1ccc(C(=O)N2CCCC2c2ccco2)cc1OC (centres undefined)" target_under_test="Arginase-2, mitochondrial (Homo sapiens) (UniProt P78540)" measured_value=-1.94%
compound=O=C(NCCCN1CCOCC1)c1cc(-c2ccco2)[nH]n1 target_under_test="Arginase-2, mitochondrial (Homo sapiens) (UniProt P78540)" measured_value=2.4%
